IC50 by entry:
# TESTED TARGET: Angiotensin-converting enzyme (Homo sapiens, UniProt P12821)
# Sequence (P12821 whole entry): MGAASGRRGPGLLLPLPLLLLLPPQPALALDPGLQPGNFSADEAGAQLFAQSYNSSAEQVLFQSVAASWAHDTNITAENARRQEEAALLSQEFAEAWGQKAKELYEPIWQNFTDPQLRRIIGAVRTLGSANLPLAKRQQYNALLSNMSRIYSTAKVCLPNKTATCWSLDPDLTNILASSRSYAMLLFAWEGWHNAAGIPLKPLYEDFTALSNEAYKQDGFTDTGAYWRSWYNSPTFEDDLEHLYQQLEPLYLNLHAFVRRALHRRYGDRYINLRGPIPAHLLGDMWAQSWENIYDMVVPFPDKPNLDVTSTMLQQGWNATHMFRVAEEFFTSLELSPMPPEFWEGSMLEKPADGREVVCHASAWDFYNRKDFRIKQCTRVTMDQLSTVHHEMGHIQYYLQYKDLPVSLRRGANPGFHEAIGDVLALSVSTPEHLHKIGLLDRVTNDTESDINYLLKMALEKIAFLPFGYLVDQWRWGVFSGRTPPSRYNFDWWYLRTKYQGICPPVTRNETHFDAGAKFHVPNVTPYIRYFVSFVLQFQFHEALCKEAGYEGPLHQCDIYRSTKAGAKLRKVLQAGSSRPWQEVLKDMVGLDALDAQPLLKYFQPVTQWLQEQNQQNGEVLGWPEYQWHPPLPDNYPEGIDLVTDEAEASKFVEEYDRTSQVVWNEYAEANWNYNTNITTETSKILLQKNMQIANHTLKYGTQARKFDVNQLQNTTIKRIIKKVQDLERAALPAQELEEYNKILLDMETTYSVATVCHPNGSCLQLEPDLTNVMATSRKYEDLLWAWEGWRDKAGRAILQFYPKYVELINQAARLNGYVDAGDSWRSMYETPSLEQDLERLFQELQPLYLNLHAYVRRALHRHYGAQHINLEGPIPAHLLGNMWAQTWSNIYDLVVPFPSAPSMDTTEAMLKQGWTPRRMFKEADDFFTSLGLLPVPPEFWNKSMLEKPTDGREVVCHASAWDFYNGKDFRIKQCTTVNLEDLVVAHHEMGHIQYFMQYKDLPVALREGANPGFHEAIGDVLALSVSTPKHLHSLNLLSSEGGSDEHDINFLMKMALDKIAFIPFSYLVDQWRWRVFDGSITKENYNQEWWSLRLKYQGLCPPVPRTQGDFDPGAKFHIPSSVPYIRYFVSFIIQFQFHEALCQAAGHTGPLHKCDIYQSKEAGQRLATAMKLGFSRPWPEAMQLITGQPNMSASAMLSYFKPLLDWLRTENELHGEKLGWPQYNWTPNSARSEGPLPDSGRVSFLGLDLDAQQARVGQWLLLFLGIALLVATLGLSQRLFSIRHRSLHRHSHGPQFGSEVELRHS
# MEASUREMENT DESCRIPTION: Inhibitory activity against angiotensin converting enzyme (ACE)
QUANTITY KIND: IC50 (µM)

> print(dat)
                                   molecule  result
1  CC(CS)C(=O)N[C@@H](Cc1c[nH]c2ccccc12)C(=O)O (stereo in doubt)    33.1
2                       CN(CC(=O)O)C(=O)CCS    3.02
3  C[C@H](NC(CCc1ccccc1)P(=O)(O)O)C(=O)N1CCC[C@H]1C(=O)O (stereo partly specified)  0.0513
4              O=C(O)C[C@H](NC(=O)CS)C(=O)O    77.6
5         O=C(O)[C@@H]1CCCN1C(=O)CP(=O)(O)O    8.32
6  C[C@H](NC(CCN)C(=O)O)C(=O)N1CCC[C@H]1C(=O)O (stereo partly specified)   0.324

----------
# key: entry, value: IC50
# TESTED TARGET: Angiotensin-converting enzyme (Homo sapiens)
# MEASUREMENT DESCRIPTION: Inhibitory activity against angiotensin converting enzyme (ACE)
Peptide text beside a SMILES is read from it.
QUANTITY KIND: IC50 (nM)

> print(dat)
                                    compound  quantity.kind  result
 1  O=C(O)[C@@H]1CCCN1C(=O)C1CCCC1S (stereo not given in full)           IC50    64.6
 2  NCCCC[C@H](OP(=O)(O)CCCCc1ccccc1)C(=O)N1CCC[C@H]1C(=O)O           IC50    36.3
 3  O=C(N[C@H](CCC(=O)N1CCC[C@H]1C(=O)O)C(=O)O)C1CCCN1C(=O)OCc1ccccc1 (stereo not given in full)           IC50    2510
 4  C[C@H](NC(CCc1ccc(O)cc1)C(=O)O)C(=O)N1CCC[C@H]1C(=O)O (stereo not given in full)           IC50    2.82
 5  C[C@H](NP(=O)(O)OCc1ccccc1)C(=O)N1CCC[C@H]1C(=O)O           IC50    40.7
 6  O=C(O)[C@@H]1CC2(CN1C(=O)CP(=O)(O)CCCCc1ccccc1)SCCS2           IC50    3.98
 7  O=C(O)CCc1cc(O)c2n(c1=O)[C@H](C(=O)O)CC2           IC50     457
 8        CC(C)(C)OC(=O)[C@@H]1CCCN1C(=O)CCS           IC50   38900
 9                         O=C(O)CCNC(=O)CCS           IC50  490000
10  CC(C)[C@H](N)C(=O)N1CCC[C@H]1C(=O)O (H-Val-Pro-OH)           IC50  417000

----------
# TESTED TARGET: Angiotensin-converting enzyme (Homo sapiens)
# MEASUREMENT DESCRIPTION: Inhibitory activity against angiotensin converting enzyme (ACE)
QUANTITY KIND: IC50 (µM)

> print(dat)
                                   compound  result.qualifier    result
1  C[C@@H]1CCCC(NC(CCc2ccccc2)C(=O)O)C(=O)N1CC(=O)O (some centres undefined)                 =   0.00302
2  C[C@H](NC(CCc1ccccc1)C(=O)O)C(=O)N1CC2CCCCC2[C@H]1C(=O)O (some centres undefined)                 =   0.00219
3  O=C(CCS)N[C@@H](Cc1c[nH]c2ccccc12)C(=O)O (stereo in doubt; form 1)                 >      1000
4  NCCCC[C@H](OP(=O)(O)CCCCc1ccccc1)C(=O)N1C[C@@H](c2ccccc2)C[C@H]1C(=O)O                 =  0.000132
5  CC(S)C(=O)N[C@@H](CS)C(=O)O (stereo in doubt; form 1)                 =       537
6  O=C(O)CCn1c(=O)n2n(c1=O)[C@H](C(=O)O)C=CC2                 =     0.001
7  C[C@@H](NC(=O)C(S)Cc1ccccc1)C(=O)N1CCC[C@H]1C(=O)O (some centres undefined)                 =    0.0501
8  NCCCC[C@H](OP(=O)(O)CCCCc1ccccc1)C(=O)N(CC(=O)O)c1ccc2c(c1)OCO2                 =  0.000115
9  O=C(O)[C@@H]1CCCN1C(=O)CCS (stereo in doubt; 56)                 =        17
